Would you mind telling me the reported Inhibition of each entry?
Tested on: Cryptococcus neoformans
Conditions: Concentration 20 uM; ASSAY_TEST Inhibition of Fungal Growth; detection method Resazurin; Absorption (OD600-OD570); plate type 384well; NBS; CORNING #3640
Description: Antifungal activity against Cryptococcus neoformans H99 ATCC 208821 (CO-ADD:FG_002); MIC in YNB media using NBS plates, by Resazurin OD(600-570)
Results with a measured potency or affinity are listed apart.
Give bare numbers, in %.

COc1ccc(N(CCc2cccc(C)n2)C(C)=O)cc1 = -4.26
FC(F)(F)c1ccc(N(c2cccnc2)C2CCN(c3ccc(C(F)(F)F)cn3)CC2)cc1 = -3.19
Cc1ccc2nc(C)c(-c3ccn(Cc4ccccc4)n3)n2c1 = -8.36
c1ccc(Oc2ccc(-c3cc(N4CCOCC4)[nH]n3)cc2)cc1 = -7.11
CCc1nc2ccc(C(=O)NCc3ccc4c(c3)OCO4)cn2c1N(C)Cc1cccs1 = -6.4
CC(C)n1nc(-c2cc3c(Cl)cccc3[nH]2)c2c(N)ncnc21 = -4.09
Cc1ccc(Oc2ccc(NC(=O)CNc3ccccc3N3CCCC3=O)cc2)cc1 = -10.82
O=C(NC1CCCCC1)N1CCN(Cc2ccc3c(c2)OCO3)CC1 = -16.64

State recorded Inhibition for all listed compounds.
1. CC(C)(C)C(=O)N(CCCCCCN1C[C@H](O)[C@@H](O)[C@H](O)[C@H]1CO)C1CCCCCC1
2. CS(=O)(=O)N1CCC(Cn2nc(Cc3cccc4ccccc34)c3c(N)ncnc32)CC1
3. Cl.c1ccc(Oc2ccc(-c3cc(N4CCNCC4)[nH]n3)cc2)cc1

*A*
-2.01
-6.98
-9.84

State recorded Inhibition for all listed compounds.
1. Cc1nc(-c2cccc(NCc3ccccc3)c2)[nH]c1C
2. Nc1ncnc2[nH]nc(Cc3cccc4ccccc34)c12
3. COc1ccc2nc(C)cc(OCC(=O)NCc3ccccc3)c2c1

*A*
[-12.15, -8.72, -4.71]

State recorded Inhibition for all listed compounds.
1. Cc1ccc2[nH]c3c(NCCN(C)C)ncnc3c2c1
2. COc1ccc(-c2nc(-c3cccc(NC(=O)Cc4ccc(F)cc4)c3)no2)cc1OC
3. CC(C)/N=c1\cc2n(-c3ccc(Cl)cc3)c3ccccc3nc-2cc1Nc1ccc(Cl)cc1
4. Cc1ccc(S(=O)(=O)n2cc(-c3ccnc(N)c3)c3cc(Br)cnc32)cc1

*A*
1: -5.96; 2: -5.03; 3: -11.17; 4: -2.21

State recorded Inhibition for all listed compounds.
1. COc1cccc(OCC(=O)c2ccc(Br)cc2)c1
2. CCOC(=O)c1c(NC(=O)c2c(F)c(F)c(F)c(F)c2F)sc(C(N)=O)c1C
3. Cn1ncc2c(N3CCOCC3)nc(NCCc3c[nH]c4ccccc34)nc21

*A*
[-12.88, -6.59, -8.59]

Values from ChEMBL document CHEMBL4513149
